# TARGET OR SYSTEM: T1, human GIP receptor (human, UniProt P48546 22-466)
# T1 sequence (looked up): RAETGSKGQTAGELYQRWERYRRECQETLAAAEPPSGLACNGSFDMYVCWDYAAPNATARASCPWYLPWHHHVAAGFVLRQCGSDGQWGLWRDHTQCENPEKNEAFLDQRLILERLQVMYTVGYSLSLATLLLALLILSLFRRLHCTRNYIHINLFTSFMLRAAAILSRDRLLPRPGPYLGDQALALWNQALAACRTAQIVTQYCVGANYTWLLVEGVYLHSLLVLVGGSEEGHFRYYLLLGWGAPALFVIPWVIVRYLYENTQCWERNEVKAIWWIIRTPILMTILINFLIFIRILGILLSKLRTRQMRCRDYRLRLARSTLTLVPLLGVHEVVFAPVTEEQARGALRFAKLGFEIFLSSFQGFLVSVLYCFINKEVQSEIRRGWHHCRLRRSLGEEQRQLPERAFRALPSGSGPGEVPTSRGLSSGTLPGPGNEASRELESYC
# ASSAY NOTES: cell-based or functional assay
ASSAY METRIC: cAMP EC50 (nM)
Answers are plain numbers, in nM.

Working through the 6 binders below one at a time, give cAMP EC50 for each.
1. IP147 (Fc fusion) YSEGTFTSDYSKLLEEEAVRLFIEWLVKGPAPPGGSGSTASSGSGSATGGGGAATHTCPPCPAPEF
2. YSEGTFTSDYSKLLEEEAVRLFIEWLVKGPGGGGGGGGGGGGATHTCPPC (Fc fusion) [IP284]
3. IP252 (Fc fusion) YSEGTFTSDYSKLLEEEAVRLFIEWLVKGPGGGGGSGGGGSGGGGSAESKYGPPCPPCPAPEAA
4. IP257 (Fc fusion) SEGTFTSDYSKLLEEEAVRLFIEWLVKGPGGGGGSGGGGSGGGGSGGGGSATHTCPPCPAPEF
5. IP294 (Fc fusion) YSEGTFTSDYSKLLEEEAVRLFICWLVCGPGGGGGGGGGGGGGGGGGGGGACPPC
6. IP371 (Fc fusion) YSEGMHTSDLSKLLEEEAVRLFIEWLLAGGGGGGGSGGGGSGGGGSGGGGSACPPC

Return:
1. 0.0037
2. 0.039
3. 0.024
4. 180
5. 1.3
6. 0.011

Reference for the values: patent US20160185837A1
